Hello, the source for this data is patent US9040663B2, in case you need it.

system-name: hMC4-R (Homo sapiens (Human))
Sequence (P32245 whole entry): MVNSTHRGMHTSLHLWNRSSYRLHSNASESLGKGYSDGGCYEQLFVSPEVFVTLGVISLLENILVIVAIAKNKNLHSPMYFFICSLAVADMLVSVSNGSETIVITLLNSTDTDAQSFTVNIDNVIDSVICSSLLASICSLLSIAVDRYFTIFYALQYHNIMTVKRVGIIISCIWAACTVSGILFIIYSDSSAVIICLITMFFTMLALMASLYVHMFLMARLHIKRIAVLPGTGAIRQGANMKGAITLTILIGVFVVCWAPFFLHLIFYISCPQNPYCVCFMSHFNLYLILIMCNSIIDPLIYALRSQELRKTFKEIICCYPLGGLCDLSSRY
assay-overview: High and low density hMC4-R functional assay (cAMP, HEK293-T-REx-MC4-R cells)
Assay type: cell-based
experimental-context: 10 ng/mL Doxycycline (high density hMC4-R system)
Protocol: The cells were then dispensed into 96-well plates (BD 353916) in 198 μL (about 5×10^4) cells/well and incubated for 10 minutes at 37° C. The compound to be tested was diluted with DMSO to a final concentration of 1 mM. […] 120 μL of the 1 mM compound stock was pipetted in the second column on the plate. […] All assay samples were run in duplicate (i.e. each sample was in two low dox and two high dox plates, respectively). The plates were gently shaken and incubated for 15 minutes at 37° C.
measure: EC50 (pM)

Here's what some known entries look like.
# structure-string, system-name, EC50 [pM]
data = [
    ("CC(=O)N[C@@H](CCCNC(=N)N)C(=O)N[C@H]1CCC(=O)NCCC[C@@H](C(N)=O)NC(=O)[C@H](Cc2c[nH]c3ccccc23)NC(=O)[C@H](CCCNC(=N)N)NC(=O)[C@@H](Cc2ccc(F)cc2)NC(=O)[C@H](CC(N)=O)NC1=O", "hMC4-R (Homo sapiens (Human))", 95),
    ("CC(=O)N[C@H](CCCNC(=N)N)C(=O)N[C@H]1CC(=O)NCCCC[C@@H](C(N)=O)NC(=O)[C@H](Cc2c[nH]c3ccccc23)NC(=O)[C@H](CCCNC(=N)N)NC(=O)[C@@H](Cc2ccccc2Cl)NC(=O)[C@H](CCC(N)=O)NC1=O", "hMC4-R (Homo sapiens (Human))", 200),
    ("CC(=O)N[C@@H](CCCNC(=N)N)C(=O)N[C@H]1CCC(=O)NCCC[C@@H](C(N)=O)NC(=O)[C@H](Cc2c[nH]c3ccccc23)NC(=O)[C@H](CCCNC(=N)N)NC(=O)[C@@H](Cc2cc(F)cc(F)c2)NC(=O)[C@H](CC(N)=O)NC1=O", "hMC4-R (Homo sapiens (Human))", 135),
]

1: CC(=O)N[C@@H](CCCNC(=N)N)C(=O)N[C@H]1CCC(=O)NCCC[C@@H](C(N)=O)NC(=O)[C@H](Cc2c[nH]c3ccccc23)NC(=O)[C@H](CCCNC(=N)N)NC(=O)[C@@H](Cc2cccc(Cl)c2)NC(=O)[C@H](CCCN)NC1=O
2: CC(=O)N[C@@H](CCCNC(=N)N)C(=O)N[C@H]1CCC(=O)NCCC[C@@H](C(N)=O)NC(=O)[C@H](Cc2c[nH]c3ccccc23)NC(=O)[C@H](CCCNC(=N)N)NC(=O)[C@@H](Cc2ccc([N+](=O)[O-])cc2)NC(=O)[C@H](CCN)NC1=O
// select label with min value of measured EC50 from [ 1 , 2 ] Response format: the label of the selected entry.
1
(1: 140 pM, 2: 450 pM)
